Recorded pEC50 for the following compounds
Biological target: UniProtKB P30542
Sequence (P30542 whole entry): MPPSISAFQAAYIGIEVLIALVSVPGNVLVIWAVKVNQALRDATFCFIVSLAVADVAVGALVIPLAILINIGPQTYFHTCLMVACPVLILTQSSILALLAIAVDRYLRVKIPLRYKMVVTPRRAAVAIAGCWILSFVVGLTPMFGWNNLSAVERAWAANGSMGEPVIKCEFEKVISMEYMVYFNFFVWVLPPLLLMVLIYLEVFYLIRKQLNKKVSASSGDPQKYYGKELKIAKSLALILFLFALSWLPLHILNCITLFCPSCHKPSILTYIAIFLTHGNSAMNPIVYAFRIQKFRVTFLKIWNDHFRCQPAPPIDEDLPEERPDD
Test: GTPγS scintillation proximity assay, agonist testing
Conditions: agonist activity; membrane extracts of CHO-K1 cells expressing recombinant human A1; read-out: A1AR EC50
pEC50: −log10 of the molar value.

The following compounds have reported results that may help.
COCCOc1ccc(-c2c(C#N)c(N)nc(SCC(=O)O)c2C#N)cc1 :: < 5.00
N#Cc1c(SCc2cccnc2)nc(N2CC(F)(F)C2)c(C#N)c1-c1ccc(OC(F)(F)CO)cc1 :: < 5.00

Read the next record carefully.
Task item: // pEC50 lookup, key: COCCOc1ccc(-c2c(C#N)c(N)nc(S[C@H](C)c3ccccn3)c2C#N)cc1
Reply: < 5.00

###

Recorded pEC50 for the following molecules
Biological target: human A2B (Homo sapiens, UniProt P29275)
Sequence (P29275 whole entry): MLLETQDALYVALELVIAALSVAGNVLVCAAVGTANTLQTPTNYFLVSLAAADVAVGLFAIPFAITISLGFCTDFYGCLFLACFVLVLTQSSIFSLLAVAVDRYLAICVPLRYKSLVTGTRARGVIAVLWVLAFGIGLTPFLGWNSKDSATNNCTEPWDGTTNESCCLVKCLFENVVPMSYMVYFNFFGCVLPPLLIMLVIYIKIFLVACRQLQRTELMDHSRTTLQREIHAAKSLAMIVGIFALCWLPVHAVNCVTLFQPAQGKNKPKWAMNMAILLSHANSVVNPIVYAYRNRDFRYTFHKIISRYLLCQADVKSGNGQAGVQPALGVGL
Assay: cAMP HTRF assay for Gs coupled receptor, agonist test
Details: agonist activity; HEK293 cells expressing recombinant human A2B; read-out: A2BAR EC50
pEC50: −log10 of the molar value.

The following molecules have reported results that may help.
N#Cc1c(N)nc(SCC2CCOC2)c(C#N)c1-c1ccc(OC2CCCOC2)cc1 (stereo not shown) [Compound 326] :: < 5.00
COCCOc1ccc(-c2c(C#N)c(SCC3COC3)nc(N3CC(F)C3)c2C#N)cc1 [Compound 267] :: < 5.00
N#Cc1c(N)nc(SCC2(F)COC2)c(C#N)c1-c1ccc(OCCO)cc1 [Compound 320] :: < 5.00

Read the next record carefully.
Task item: // pEC50 lookup, key: COCCOc1ccc(-c2c(C#N)c(N)nc(SCc3cccc4c3CCO4)c2C#N)cc1 [Compound 212]
Reply: < 5.00

Reference source: patent US20250170112A1
